Sourced from patent US6124269A

Measured MIC, listed per entry.
System: Escherichia coli SS
Protocol text: In vitro agar dilution MIC, organism code RR
Format: cell-based
Run parameters: Table 1B, in µg/mL (unit assumed)
Assay endpoint: MIC

- Molecule: "CC[C@H]1OC(=O)C(C)(F)C(=O)[C@H](C)[C@@H](O[C@@H]2O[C@H](C)C[C@H](N(C)C)[C@H]2O)[C@](C)(OCC#CC(=O)c2ccccc2)C[C@@H](C)C(=O)[C@H](C)[C@H]2NC(=O)O[C@@]21C (stereo partly drawn)"
  Study system: "Escherichia coli SS"
  Experimental result: 3.1
- Molecule: "CC[C@H]1OC(=O)[C@@](C)(F)C(=O)[C@H](C)[C@@H](O[C@@H]2O[C@H](C)C[C@H](N(C)C)[C@H]2O)[C@](C)(OC/C=C/c2cnc3ccc(NC)cc3c2)C[C@@H](C)C(=O)[C@H](C)[C@H]2NC(=O)O[C@@]21C"
  Study system: "Escherichia coli SS"
  Experimental result: 0.2
- Molecule: "CC[C@H]1OC(=O)[C@@](C)(F)C(=O)[C@H](C)[C@@H](O[C@@H]2O[C@H](C)C[C@H](N(C)C)[C@H]2O)[C@](C)(OC/C=C/c2cnc3ccc(C=NO)cc3c2)C[C@@H](C)C(=O)[C@H](C)[C@H]2NC(=O)O[C@@]21C"
  Study system: "Escherichia coli SS"
  Experimental result: 0.2
